Target: human TRPA1 (Homo sapiens (Human), UniProt O75762)
Sequence (O75762 whole entry): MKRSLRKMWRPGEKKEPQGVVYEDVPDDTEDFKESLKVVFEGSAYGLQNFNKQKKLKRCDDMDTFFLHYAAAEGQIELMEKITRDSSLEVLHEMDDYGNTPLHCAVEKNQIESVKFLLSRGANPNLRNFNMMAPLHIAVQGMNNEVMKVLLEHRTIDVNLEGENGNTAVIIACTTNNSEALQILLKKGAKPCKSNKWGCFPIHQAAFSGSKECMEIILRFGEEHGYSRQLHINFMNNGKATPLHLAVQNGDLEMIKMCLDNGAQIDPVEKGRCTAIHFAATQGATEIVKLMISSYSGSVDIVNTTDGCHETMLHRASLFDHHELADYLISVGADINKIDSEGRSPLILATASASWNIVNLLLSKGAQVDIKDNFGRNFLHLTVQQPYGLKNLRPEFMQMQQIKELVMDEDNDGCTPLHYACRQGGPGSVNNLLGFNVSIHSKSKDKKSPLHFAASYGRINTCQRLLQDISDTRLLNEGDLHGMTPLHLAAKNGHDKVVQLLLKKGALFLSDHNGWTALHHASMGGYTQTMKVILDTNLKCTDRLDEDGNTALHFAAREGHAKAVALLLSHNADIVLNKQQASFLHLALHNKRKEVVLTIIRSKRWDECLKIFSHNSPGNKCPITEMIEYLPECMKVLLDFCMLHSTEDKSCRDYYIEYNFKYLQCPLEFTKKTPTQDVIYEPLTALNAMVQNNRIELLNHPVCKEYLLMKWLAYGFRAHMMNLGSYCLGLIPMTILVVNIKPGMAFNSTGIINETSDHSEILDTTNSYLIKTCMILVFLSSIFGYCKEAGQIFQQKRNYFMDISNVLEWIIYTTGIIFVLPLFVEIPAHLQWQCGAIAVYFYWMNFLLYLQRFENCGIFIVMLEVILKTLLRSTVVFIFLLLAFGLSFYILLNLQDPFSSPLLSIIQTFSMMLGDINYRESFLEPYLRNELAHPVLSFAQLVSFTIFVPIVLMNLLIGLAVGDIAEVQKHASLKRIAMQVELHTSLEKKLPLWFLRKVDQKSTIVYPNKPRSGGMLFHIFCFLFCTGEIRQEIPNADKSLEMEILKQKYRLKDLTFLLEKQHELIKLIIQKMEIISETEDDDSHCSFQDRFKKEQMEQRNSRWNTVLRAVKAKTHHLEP
Experiment: Measurement of TRPA1 antagonist activity (1): intracellular calcium increase
Assay type: cell-based
Details: 293T cells transfected with human TRPA1 expression plasmid; allylisothiocyanate 20 μM stimulation; intracellular calcium fluorescence; read-out: hTRPA1 IC50
pIC50: −log10 of the molar value.
We begin with a simple list: items and their reported pIC50.

smiles.notation | pIC50
C[C@H](NS(=O)(=O)c1cc2cc(F)ccc2o1)C(=O)NCc1cc(-c2ccc(C(F)(F)F)cn2)cnn1 | 6.48
O=C(NCc1ccc(F)c(-c2ccc(C(F)(F)F)cn2)c1)[C@@H]1CCCN1S(=O)(=O)c1cc2ccccc2o1 | 8.00
O=C(NCc1cc(-c2ccc(C(F)(F)F)nc2)ncn1)[C@@H]1CCCN1S(=O)(=O)c1cc2ccccc2o1 | 8.40
O=C(NCc1ccnc(-c2ccc(OC(F)F)cc2)c1)[C@@H]1CCCN1S(=O)(=O)c1cc2cc(F)ccc2o1 | 8.70
O=C(NCc1cccc(SCc2ccccc2)c1)[C@@H]1CCCN1S(=O)(=O)c1cc2ccccc2o1 | 7.80
O=C(NCc1cc(-c2cnc(C(F)(F)F)cn2)ccn1)[C@@H]1CCCN1S(=O)(=O)c1cc2ccccc2o1 | 8.07
C[C@H](NS(=O)(=O)c1cc2cc(F)ccc2o1)C(=O)NCc1cc(-c2ccc(OC(F)(F)F)cc2)ccn1 | 7.77
CN(C)c1ccc(-c2ccc(F)c(CNC(=O)[C@@H]3CCCN3S(=O)(=O)c3cc4ccccc4o3)c2)cn1 | 7.96
O=C(NCc1cccc(OCc2ccnc(C(F)(F)F)c2)c1)[C@@H]1CCCN1S(=O)(=O)c1cc2ccccc2o1 | 8.27
O=C(NCc1cc(-c2cc(Cl)cs2)ccn1)[C@@H]1CCCN1S(=O)(=O)c1cc2ccccc2o1 | 6.74
O=C(NCc1cccc(-c2ccc(N3CCOCC3)nc2)c1)[C@@H]1CCCN1S(=O)(=O)c1cc2cc(F)ccc2o1 | 7.57
O=C(NCc1cc(C(F)(F)F)ccc1Cl)[C@@H]1CCCN1S(=O)(=O)c1cc2ccccc2o1 | 8.01
N#Cc1ccc(-c2ccnc(CNC(=O)[C@@H]3CCCN3S(=O)(=O)c3cc4cc(F)ccc4o3)c2)cc1 | 7.89
C[C@H](NS(=O)(=O)c1cc2cc(F)ccc2o1)C(=O)NCc1ccnc(-c2cnc(C(F)(F)F)nc2)c1 | 7.38

###

Target: human TRPA1 (Homo sapiens (Human), UniProt O75762)
Assay: Measurement of TRPA1 antagonist activity (1): intracellular calcium increase
Format: cell-based
Conditions: 293T cells transfected with human TRPA1 expression plasmid; allylisothiocyanate 20 μM stimulation; intracellular calcium fluorescence; read-out: hTRPA1 IC50

smiles.notation | uom | IC50
O=C(NCc1cccc(OCc2ccc(C(F)(F)F)cc2)c1)[C@@H]1CCCN1S(=O)(=O)c1cc2ccccc2o1 | nM | 9.1
O=C(NCc1cc(-c2ccc(C(F)(F)F)cn2)ccn1)[C@@H]1[C@H]2CC[C@H](C2)N1S(=O)(=O)c1cc2cc(F)ccc2o1 | nM | 2.3
O=C(NCc1ccc(-c2ccc(F)cc2)cc1)[C@@H]1CCCN1S(=O)(=O)c1cc2ccccc2o1 | nM | 180
O=C(NCc1cc(-c2ccc(C(F)(F)F)cc2)cnn1)[C@@H]1CCCN1S(=O)(=O)c1cc2ccccc2o1 | nM | 19
O=C(NCc1cc(-c2ccc(C(F)(F)F)cc2)ccn1)[C@@H]1CCCN1S(=O)(=O)c1cc2cc(F)ccc2o1 | nM | 2.2
C[C@H](NS(=O)(=O)c1cc2cc(F)ccc2o1)C(=O)NCc1cc(-c2ccc(OC(F)(F)F)cc2)ncn1 | nM | 5.2
N#Cc1ccc(-c2cc(CNC(=O)[C@@H]3CCCN3S(=O)(=O)c3cc4cc(F)ccc4o3)ccn2)cc1 | nM | 7.6

###

Biological target: UniProt:O75762
Assay: Measurement of TRPA1 antagonist activity (1): intracellular calcium increase
Type: cell-based
Conditions: 293T cells transfected with human TRPA1 expression plasmid; allylisothiocyanate 20 μM stimulation; intracellular calcium fluorescence; read-out: hTRPA1 IC50
Each record is given True if its reported IC50 is strictly below 0.006 µM. Records at or above 0.006 µM are given False.

molecule | class.label
O=C(NCc1cccc(OCc2ccc(C(F)(F)F)nc2)c1)[C@@H]1CCCN1S(=O)(=O)c1cc2ccccc2o1 | False
O=C(NCc1cccc(-c2ccc(C(F)(F)F)nn2)c1)[C@@H]1CCCN1S(=O)(=O)c1cc2ccccc2o1 | True
O=C(NCc1ccc(-c2cccc(C(F)(F)F)c2)cc1)[C@@H]1CCCN1S(=O)(=O)c1cc2ccccc2o1 | False
O=C(NCc1cc(-c2ccc(OC(F)(F)F)cc2)ncn1)[C@@H]1CCCN1S(=O)(=O)c1cc2ccccc2o1 | True
O=C(NCc1cccc(OCC2CCOC2)c1)[C@@H]1CCCN1S(=O)(=O)c1cc2cc(F)ccc2o1 (stereo partly shown) | False
O=C(NCc1cc(-c2cnc(C(F)(F)F)nc2)ccn1)[C@@H]1CCCN1S(=O)(=O)c1cc2ccccc2o1 | False
O=C(NCc1ccc(Oc2cccc(C(F)(F)F)c2)cc1)[C@@H]1CCCN1S(=O)(=O)c1cc2ccccc2o1 | False

###

Target: human TRPA1 (Homo sapiens (Human), UniProt O75762)
Test: Measurement of TRPA1 antagonist activity (1): intracellular calcium increase
Format: cell-based
Settings: 293T cells transfected with human TRPA1 expression plasmid; allylisothiocyanate 20 μM stimulation; intracellular calcium fluorescence; read-out: hTRPA1 IC50
# thresholds on IC50 define classes: category 1: < 10 nM; category 2: ≥ 10 nM and < 60 nM; category 3: ≥ 60 nM

compound | class.label
C[C@H](NS(=O)(=O)c1cc2cc(F)ccc2o1)C(=O)NCc1cc(-c2ccc(C(F)(F)F)cn2)c(O)cn1 | category 2
O=C(NCc1cc(-c2ccc(C(F)(F)F)cc2O)ncn1)[C@@H]1CCCN1S(=O)(=O)c1cc2ccccc2o1 | category 1
O=C(NCc1cc(-c2ccc(C(F)(F)F)cn2)ccn1)[C@@H]1CCN1S(=O)(=O)c1cc2cc(F)ccc2o1 | category 1
O=C(NCc1cccc(-c2ccc(OC(F)(F)F)cc2)c1)[C@@H]1CCCN1S(=O)(=O)c1cc2cc(F)ccc2o1 | category 1
O=C(NCc1cccc(OCc2ccc(C(F)(F)F)cc2)c1)[C@@H]1CC=CCN1S(=O)(=O)c1cc2ccccc2o1 | category 3
O=C(NCc1cccc([S+]([O-])Cc2ccccc2)c1)[C@@H]1CCCN1S(=O)(=O)c1cc2ccccc2o1 (some centres unmarked) | category 3
O=C(NCc1ccc(Oc2ccnc(C(F)(F)F)c2)cc1)[C@@H]1CCCN1S(=O)(=O)c1cc2cc(F)ccc2o1 | category 2
C[C@H](NS(=O)(=O)c1cc2cc(F)ccc2o1)C(=O)NCc1cc(-c2ccc(C(F)(F)F)cn2)ncn1 | category 3
O=C(NCc1cc(-c2ccc(C(F)(F)F)cn2)ccn1)[C@@H]1c2ccccc2CN1S(=O)(=O)c1cc2cc(F)ccc2o1 (racemic) | category 2
O=C(NCc1ccnc(-c2cc(F)c(F)cc2O)c1)[C@@H]1CCCN1S(=O)(=O)c1cc2ccccc2o1 | category 3
O=C(NCc1cccc(OCc2cccc(C(F)(F)F)n2)c1)[C@@H]1CCCN1S(=O)(=O)c1cc2cc(F)ccc2o1 | category 2
C[C@H](NS(=O)(=O)c1cc2cc(F)ccc2o1)C(=O)NCc1cncc(-c2ccc(C(F)(F)F)nc2)c1 | category 3
CC(C)(C)OC(=O)c1ccc(CNC(=O)[C@@H]2CCCN2S(=O)(=O)c2cc3ccccc3o2)cc1-c1ccc(C(F)(F)F)cc1 | category 1

###

Biological target: human TRPA1 (Homo sapiens (Human), UniProt O75762)
Test: Measurement of TRPA1 antagonist activity (2): as (1), different lot of human TRPA1 expression plasmid
Type: cell-based
Conditions: 293T cells transfected with human TRPA1, allylisothiocyanate 20 μM stimulation, calcium fluorescence, read-out: hTRPA1 IC50
pIC50: −log10 of the molar value.

smiles.notation | pIC50
C[C@H](NS(=O)(=O)c1cc2cnccc2o1)C(=O)NCc1ccnc(-c2ccc(C(F)(F)F)cc2)c1 | 6.72
C#CCN([C@@H](C)C(=O)NCc1cc(-c2ccc(C(F)(F)F)cn2)ccn1)S(=O)(=O)c1cc2cc(F)ccc2o1 | 7.96
C[C@H](NS(=O)(=O)c1cc2cc(F)ccc2o1)C(=O)NCc1ccc(O)c(-c2ccc(C(F)(F)F)nn2)c1 | 7.70
O=C(NCc1cc(-c2ccc(C(F)(F)F)cn2)cnn1)[C@@H]1CCN1S(=O)(=O)c1cc2cc(F)ccc2o1 | 7.59

###

Biological target: human TRPA1 (Homo sapiens (Human), UniProt O75762)
Test: Measurement of TRPA1 antagonist activity (1): intracellular calcium increase
Assay type: cell-based
Conditions: 293T cells transfected with human TRPA1 expression plasmid; allylisothiocyanate 20 μM stimulation; intracellular calcium fluorescence; read-out: hTRPA1 IC50
result.type: IC50 (nM)

smiles.notation | target | result.type | uom | experimental.value
C[C@H](NS(=O)(=O)c1cc2ccccc2o1)C(=O)NCc1cc(-c2ccc(C(F)(F)F)cc2)ncn1 | human TRPA1 (Homo sapiens (Human), UniProt O75762) | IC50 | nM | 14
CNC(=O)c1ccc(-c2cccc(CNC(=O)[C@@H]3CCCN3S(=O)(=O)c3cc4cc(F)ccc4o3)c2)cn1 | human TRPA1 (Homo sapiens (Human), UniProt O75762) | IC50 | nM | 51
O=C(NCc1cccc(-c2ccc(C(F)(F)F)cn2)c1)[C@@H]1CCCN1S(=O)(=O)c1cc2cc(F)ccc2o1 | human TRPA1 (Homo sapiens (Human), UniProt O75762) | IC50 | nM | 0.38
O=C(NCc1ccnc(-c2ccc(C(F)(F)F)cn2)c1)[C@@H]1CCCN1S(=O)(=O)c1cc2ccccc2o1 | human TRPA1 (Homo sapiens (Human), UniProt O75762) | IC50 | nM | 46
